Target: human Y2 receptor (human) (UniProt P49146)
Sequence (P49146 whole entry): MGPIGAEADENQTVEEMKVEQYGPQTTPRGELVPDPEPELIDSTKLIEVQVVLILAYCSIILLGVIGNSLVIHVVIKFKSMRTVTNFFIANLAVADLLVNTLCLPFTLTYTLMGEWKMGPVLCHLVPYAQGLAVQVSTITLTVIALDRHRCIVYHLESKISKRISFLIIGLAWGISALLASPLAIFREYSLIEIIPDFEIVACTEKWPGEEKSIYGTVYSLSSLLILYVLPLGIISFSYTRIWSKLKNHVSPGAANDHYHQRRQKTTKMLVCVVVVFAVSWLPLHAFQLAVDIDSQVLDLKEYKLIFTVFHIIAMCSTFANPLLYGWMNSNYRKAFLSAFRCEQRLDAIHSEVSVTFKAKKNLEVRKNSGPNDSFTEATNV
Assay: cell-based or functional assay
Non-standard residues stand in square brackets, D forms with d. Cha = N[C@@H](CC1CCCCC1)C(=O)O; NMeS = CN[C@@H](CO)C(=O)O; Aib = CC(C)(N)C(=O)O
measure-name: GBA EC50 Ratio (vs PYY(3-36)), [35S]GTPγS

binder="Ac-A[NMeS][dP]RH[Cha][Cha]NL[Aib]TRQR[Cha]-NH2 (SMILES CC(=O)N[C@@H](C)C(=O)N(C)[C@@H](CO)C(=O)N1CCC[C@@H]1C(=O)N[C@@H](CCCNC(=N)N)C(=O)N[C@@H](Cc1c[nH]cn1)C(=O)N[C@@H](CC1CCCCC1)C(=O)N[C@@H](CC1CCCCC1)C(=O)N[C@@H](CC(N)=O)C(=O)N[C@@H](CC(C)C)C(=O)NC(C)(C)C(=O)N[C@H](C(=O)N[C@@H](CCCNC(=N)N)C(=O)N[C@@H](CCC(N)=O)C(=O)N[C@@H](CCCNC(=N)N)C(=O)N[C@@H](CC1CCCCC1)C(N)=O)[C@@H](C)O) [Ac-[MeSer23, D-Pro24, Cha27,28,36, Aib31]-PYY(22-36)]" val=7.8
